- target-entity: JAK3 (Homo sapiens, UniProt P52333)
- Sequence (P52333 whole entry, species assumed): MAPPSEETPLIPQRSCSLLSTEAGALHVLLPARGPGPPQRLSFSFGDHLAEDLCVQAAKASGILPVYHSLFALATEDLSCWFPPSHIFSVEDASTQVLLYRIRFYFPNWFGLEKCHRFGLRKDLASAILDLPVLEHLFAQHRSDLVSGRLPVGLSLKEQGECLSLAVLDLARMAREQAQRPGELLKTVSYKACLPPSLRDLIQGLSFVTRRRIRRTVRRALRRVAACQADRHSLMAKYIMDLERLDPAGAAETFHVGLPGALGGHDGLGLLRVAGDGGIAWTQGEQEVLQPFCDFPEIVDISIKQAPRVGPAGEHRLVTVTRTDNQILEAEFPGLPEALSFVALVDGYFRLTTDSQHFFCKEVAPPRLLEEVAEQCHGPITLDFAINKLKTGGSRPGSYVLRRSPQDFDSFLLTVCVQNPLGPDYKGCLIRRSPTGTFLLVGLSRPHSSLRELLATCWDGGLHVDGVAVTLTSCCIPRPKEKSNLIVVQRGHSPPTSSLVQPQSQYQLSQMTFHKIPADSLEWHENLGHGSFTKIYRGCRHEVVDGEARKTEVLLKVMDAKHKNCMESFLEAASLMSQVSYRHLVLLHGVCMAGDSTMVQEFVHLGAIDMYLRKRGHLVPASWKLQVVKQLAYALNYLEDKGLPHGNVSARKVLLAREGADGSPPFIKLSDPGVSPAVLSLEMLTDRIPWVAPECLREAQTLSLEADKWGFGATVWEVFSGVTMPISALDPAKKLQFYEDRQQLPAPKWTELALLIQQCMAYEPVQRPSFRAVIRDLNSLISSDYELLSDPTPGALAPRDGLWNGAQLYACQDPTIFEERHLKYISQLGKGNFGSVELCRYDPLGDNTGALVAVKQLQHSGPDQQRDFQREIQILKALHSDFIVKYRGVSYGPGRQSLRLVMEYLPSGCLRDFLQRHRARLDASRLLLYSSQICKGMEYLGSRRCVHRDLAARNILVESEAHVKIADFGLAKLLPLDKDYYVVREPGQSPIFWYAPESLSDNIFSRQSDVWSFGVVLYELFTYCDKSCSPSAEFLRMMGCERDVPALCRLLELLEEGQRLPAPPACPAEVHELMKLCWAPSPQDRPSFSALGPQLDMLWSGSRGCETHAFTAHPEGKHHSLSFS
- measurement-protocol: biochemical
pKi: −log10 of the molar value.
readout-name: pKi

// below: answered compounds
test-smiles	target-entity	reported
CCC(=O)Nc1ccc(Sc2nc(Nc3cc(C)n[nH]3)cc(N3CC(O)(C(C)C)C3)n2)cc1	JAK3 (Homo sapiens, UniProt P52333)	≥ 8.00
Cc1cc(Nc2cc(N3CCC3)nc(Sc3ccc(NC(=O)C(C)(C)C)cc3)n2)[nH]n1	JAK3 (Homo sapiens, UniProt P52333)	5.70 to 6.30
Cc1cc(Nc2cc(N3CCC3)nc(Sc3ccc(NC(=O)c4ccc(Oc5ccccc5)cc4Cl)cc3)n2)[nH]n1	JAK3 (Homo sapiens, UniProt P52333)	5.70 to 6.30

Now let's try a different one.
Measured pKi of `Cc1cc(Nc2cc(N3CCC3)nc(Sc3ccc(C(=O)N4CCCC4)cc3)n2)n[nH]1` : 6.30 to 8.00
